Origin of the recorded values: patent US20160200815A1

MEASUREMENT_TARGET: T1, hTIM3-Fc murine FG loop (human, FG loop replaced by mouse TIM-3)
T1 construct: Whole construct: chimeric ECD, linker and human IgG1 Fc; also called hTIM3-Fc FG loop chimera
PROTOCOL: ELISA, construct coated on plate

BINDER	Absorbance at 450 nm (A450)
mAb58 (antibody, V domains shown) VH: QIQLVQSGPELKKPGETVKISCKASGYTFTTYGMSWVKQAPGKGLKLMGWINTYSGAPTYADDFKGRFAFSLETSASAAYLQINNLKNEDTATYFCARKPPHYYVNSFDYWGQGTTLTVSS VL: DIVMTQSPATLSVTPGDRVSLSCRASQSISDYLHWYQQKSHESPRLLIKYASQSISGIPSRFSGSGSGSDFTLSINSVEPEDVGVYYCQNGHSFPYTFGGGTKLEIK	1.9
